Listed molecules paired with reported herbicidal rating GALAP
- System: GALAP (Galium)
- EXPERIMENTAL_DETAILS: Postemergence herbicidal evaluation
- Type: in vivo, Galium aparine
- COND: postemergence, rate 0.0630 kg/ha
READOUT_LABEL: herbicidal rating GALAP

MOLECULE | READOUT_VALUE
Cn1c(C(F)(F)F)cc(=O)n(-c2cc(N=C3SCC(=O)N3CC(=O)OCC#N)c(Cl)cc2F)c1=O [Compound 109] | 5.0
CCCCOC(=O)CN1C(=O)CSC1=Nc1cc(-n2c(=O)cc(C(F)(F)F)n(C)c2=O)c(F)cc1Cl [Compound 111] | 1.0
C=CCN1C(=O)C(CC(=O)NS(=O)(=O)C(C)C)SC1=Nc1cc(-n2c(=O)cc(C(F)(F)F)n(C)c2=O)c(F)cc1Cl (centres unmarked) [Compound 118] | 1.0
CCOC(=O)CN1C(=O)C(Cc2ccccc2OC(C)C(=O)O)S/C1=N/c1cc(-n2c(=O)cc(C(F)(F)F)n(C)c2=O)c(F)cc1Cl (centres unmarked) [Compound 114] | 3.0
CCOC(=O)CN1C(=O)C(CC(=O)NS(=O)(=O)C(C)C)SC1=Nc1cc(-n2c(=O)cc(C(F)(F)F)n(C)c2=O)c(F)cc1Cl (centres unmarked) [Compound 117] | 1.0
